inhibition values, listed per item
Target: Platelet-activating factor acetylhydrolase 2, cytoplasmic (Homo sapiens)
Assay: inhibition of cytoplasmic PAF acetylhydrolase 2 – biochemical, fluorescence polarization, human, primary screen (AID 492956);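 further: inhibitors block probe labeling of enzyme so polarization drops; 0% = enzyme with DMSO and 100% = wells lacking PAFAH2 protein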
Conditions: recombinant PAFAH2, FP-rhodamine activity probe, at 3.39 µM, active compounds read high
In all, about 340,000 compounds went through this assay and about 3,300 (0.97%) were called active. Shown is part of a subset that was picked to be rich in actives.
measure: inhibition (%)

INSERT INTO results (compound, measure, obs_value) VALUES
  ('CCC(C)c1ccc(NC(=O)COC(=O)C2CCCC2)cc1 (centres undefined)', 'inhibition', 46.3),
  ('CC(CO)NCC12CC3CC(CC(C3)C1)C2 (centres undefined)', 'inhibition', -2.32),
  ('O=C(ON=C1CCN(S(=O)(=O)c2ccccc2)CC1)c1ccc(Cl)cc1', 'inhibition', 86.6),
  ('COc1ccc(C(=O)OCC(=O)Nc2ccc3[nH]c(=O)[nH]c3c2)c(OC)c1OC', 'inhibition', 2.25),
  ('O=C(COC(=O)Cc1ccc([N+](=O)[O-])cc1)NC1CCCCCC1', 'inhibition', 2.56),
  ('COC(=O)c1ccc(S(=O)(=O)N2CCc3ccccc3C2)cc1', 'inhibition', -2.2),
  ('CN(CC(=O)Nc1ccc(OC(F)F)cc1)S(=O)(=O)/C=C/c1ccccc1', 'inhibition', 3.38),
  ('Cc1ccc(C)c(N2CCN(C(=O)CCc3nc4ccccc4[nH]3)CC2)c1', 'inhibition', 2.85),
  ('Cc1cccc(C(=O)Nc2ccc(C(=O)N/N=C/c3cccc(C)n3)cc2)c1', 'inhibition', -6.77),
  ('COc1ccc(O)c(C(=O)c2cnc3onc(C(C)C)c3c2)c1', 'inhibition', -6.85),
  ('C#CC(C)(C)NC(=O)c1cnc(-c2ccccc2)nc1-c1ccccc1', 'inhibition', -1.01),
  ('Cc1cccc(/C=N/NC(=O)CNc2cccc3ccccc23)n1', 'inhibition', 47.5),
  ('Nc1ccc(C(=O)OCC(=O)NC2CCS(=O)(=O)C2)cc1[N+](=O)[O-] (centres undefined)', 'inhibition', 0.87),
  ('Cc1ccc(Cl)cc1NC(=O)COC(=O)CC(C)(C)C', 'inhibition', 6.71),
  ('O=C(COC(=O)c1ccc(F)cc1)Nc1ccc2c(c1)OCO2', 'inhibition', 81),
  ('COCCNC(=O)CN(Cc1ccco1)C(=O)CCC(=O)Nc1nccs1', 'inhibition', -1),
  ('O=C(NC1CCCCC1)n1c(=O)oc2cc(S(=O)(=O)N3CCCCC3)ccc21', 'inhibition', -3.36),
  ('O=S(=O)(NC1CC1)c1ccc(Cl)cc1', 'inhibition', 6.44),
  ('NS(=O)(=O)c1ccc(NS(=O)(=O)/C=C/c2ccccc2)cc1', 'inhibition', 4.92),
  ('CCC(C)NC(=O)C1CCCN(C(=O)NC2CCCCC2)C1 (centres undefined)', 'inhibition', 10.5),
  ('c1coc(-c2nc3nc4ccccc4n3nc2-c2ccco2)c1', 'inhibition', 45.7),
  ('COc1ccc(NC(=O)COC(=O)c2ccc(NS(=O)(=O)/C=C/c3ccccc3)cc2)cc1', 'inhibition', 75.8),
  ('CN(C)C(CNC(=O)CCCOc1ccccc1)c1ccco1 (centres undefined)', 'inhibition', 1.39),
  ('COC(=O)c1cc(OCC(=O)NC2CCCc3ccccc32)cc(C(=O)OC)c1 (centres undefined)', 'inhibition', 0.45),
  ('CC(C)COC(=O)n1c(=O)oc2ccc(S(=O)(=O)N3CCCCC3)cc21', 'inhibition', 67.9),
  ('O=c1ccc2cc(S(=O)(=O)N3CCN(c4ccccc4)CC3)ccc2o1', 'inhibition', -3.62),
  ('Cc1ccc(Cl)cc1NC(=O)COC(=O)C1CCCCC1', 'inhibition', 37.4),
  ('CCO[C@@H]1OC(C(=O)NCc2nc3ccccc3[nH]2)=C[C@H](C2CCCCC2)[C@H]1CCCO', 'inhibition', -12.7),
  ('CC(=O)N1c2ccc(S(=O)(=O)N3CCC(C(=O)N4CCN(c5ccccc5)CC4)CC3)cc2CC1C (centres undefined)', 'inhibition', -4.15),
  ('N#Cc1cccc(NC(=O)COC(=O)c2ccccc2C(=O)c2ccc(Cl)c([N+](=O)[O-])c2)c1', 'inhibition', 58.9),
  ('COc1ccc(C(=O)OCC(=O)c2ccc(Cl)s2)c(OC)c1OC', 'inhibition', 65.5),
  ('O=C(COC(=O)c1ccc2ncsc2c1)Nc1ccc(Cl)cc1', 'inhibition', 81.4),
  ('COc1ccc(C(=O)COC(=O)c2nn(C)c(=O)c3ccccc23)c(OC)c1', 'inhibition', 1.19),
  ('CCO/C=C1\C(=O)N(c2ccc(OCC)cc2)C(=O)c2ccccc21', 'inhibition', 5.93),
  ('Cc1c(Cl)cnc(NC(=O)COC(=O)c2ccc(S(=O)(=O)NCc3ccco3)cc2)c1Cl', 'inhibition', 22.8),
  ('CCC(C)NC(=O)C1c2ccccc2Oc2ccccc21 (centres undefined)', 'inhibition', -4.35),
  ('O=C(COC(=O)C1CCCCC1)Nc1ccc([N+](=O)[O-])cc1', 'inhibition', 59.7),
  ('CSCCC(NC(=O)c1ccco1)C(=O)OCC(=O)Nc1ncc(Cl)c(C)c1Cl (centres undefined)', 'inhibition', 0.63),
  ('N/C(Cc1ccc([N+](=O)[O-])cc1)=N\OC(=O)C1CCCCC1', 'inhibition', 18.1),
  ('O=C(COC(=O)c1cccc(Cl)c1)Nc1ccc2[nH]c(=O)[nH]c2c1', 'inhibition', -4.35),
  ('COC(=O)c1cc(NC(=O)Cc2ccccc2[N+](=O)[O-])ccc1Cl', 'inhibition', 0.54),
  ('Cc1ccc2nc(COc3ccc(N(C)S(=O)(=O)c4ccccc4)cc3)cc(=O)n2c1', 'inhibition', 8.78),
  ('CCN(CC)CCn1c2ccc(Cl)cc2c2nc(C)sc21', 'inhibition', -2.76),
  ('CCOc1ccccc1NC(=O)CCc1nnc2ccc(NCc3ccco3)nn12', 'inhibition', 3.78);
